# TARGET: HIV-1 Env of pseudovirus isolate MGRM-G-016 (subtype G) (HIV-1)
# TEST: cell-based or functional assay
VALUE KIND: IC50

BINDER	VALUE KIND	MEASURED VALUE
PGT-125 (antibody, V domains shown) VH: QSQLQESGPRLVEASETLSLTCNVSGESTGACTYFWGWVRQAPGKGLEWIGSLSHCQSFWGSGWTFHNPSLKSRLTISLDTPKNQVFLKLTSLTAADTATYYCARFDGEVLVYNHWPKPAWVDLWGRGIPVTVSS VL: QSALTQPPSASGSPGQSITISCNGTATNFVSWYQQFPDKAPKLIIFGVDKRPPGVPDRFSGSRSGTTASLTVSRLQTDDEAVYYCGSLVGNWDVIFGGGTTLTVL	IC50	> 50 µg/mL
PGT-123 (antibody, V domains shown) VH: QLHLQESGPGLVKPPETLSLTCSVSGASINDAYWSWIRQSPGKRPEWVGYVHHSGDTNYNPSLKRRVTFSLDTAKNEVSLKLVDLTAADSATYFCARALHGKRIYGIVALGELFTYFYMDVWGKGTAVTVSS VL: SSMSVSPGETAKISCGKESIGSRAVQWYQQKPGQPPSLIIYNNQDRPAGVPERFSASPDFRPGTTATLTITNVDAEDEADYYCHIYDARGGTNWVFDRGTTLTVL	IC50	> 50 µg/mL
PGT-126 (antibody, V domains shown) VH: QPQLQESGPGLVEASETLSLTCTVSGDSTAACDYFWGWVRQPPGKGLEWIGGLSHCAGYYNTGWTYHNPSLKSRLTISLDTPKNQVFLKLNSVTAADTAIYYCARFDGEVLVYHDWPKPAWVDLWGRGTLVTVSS VL: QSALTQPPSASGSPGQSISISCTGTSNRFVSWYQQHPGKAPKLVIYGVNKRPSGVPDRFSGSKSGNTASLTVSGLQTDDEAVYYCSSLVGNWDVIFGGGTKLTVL	IC50	> 50 µg/mL
